Value source: paper PMC4434572

system: cancer cells on SISgel or plastic; experiment: Activity of leads and analogs on cancer cells grown on plastic vs SISgel (cell line not stated); type: cell-based; conditions: cells on plastic; read-out: IC50-p
test readout: IC50 (µM)

>>> value_reported("Cc1cc(C)c(S(=O)(=O)[O-])cc1N=Nc1cc(S(=O)(=O)[O-])c2ccccc2c1O.[Na+].[Na+] [Ponceau SX]")
208
>>> value_reported("O=S(=O)(O)c1cc(O)c2c(N=Nc3c(S(=O)(=O)O)cc4cc(S(=O)(=O)O)cc(N=Nc5c(S(=O)(=O)O)cc6cc(S(=O)(=O)O)cc(O)c6c5O)c4c3O)cc(S(=O)(=O)O)cc2c1 [Calichrome]")
464
>>> value_reported("O=S(=O)([O-])c1cc(O)c2c(N=Nc3c(S(=O)(=O)[O-])cc4cc(S(=O)(=O)[O-])cc(O)c4c3O)cc(S(=O)(=O)[O-])cc2c1.[Na+].[Na+].[Na+].[Na+] [Beryllon II]")
94
>>> value_reported("O=S(=O)([O-])c1cc(O)c2c(O)c(N=Nc3cccc4ccccc34)c(S(=O)(=O)[O-])cc2c1.[Na+].[Na+] [DT320]")
78

P. O=S(=O)([O-])c1ccc(N=Nc2c(O)ccc3ccccc23)cc1.[Na+] [Acid Orange 7]
Q. CCOc1ccc(Nc2ccc(C(=C3C=CC(=[N+](CC)Cc4cccc(S(=O)(=O)[O-])c4)C=C3C)c3ccc(N(CC)Cc4cccc(S(=O)(=O)[O-])c4)cc3C)cc2)cc1.[Na+] [Comassie Brilliant Blue]
R. O=S(=O)([O-])c1ccc2c(N=Nc3ccc(S(=O)(=O)[O-])c4ccccc34)c(O)c(S(=O)(=O)[O-])cc2c1.[Na+].[Na+].[Na+] [Amaranthe]
S. CC(=O)Nc1ccc(N=Nc2c(S(=O)(=O)[O-])cc3cc(S(=O)(=O)[O-])cc(O)c3c2O)cc1.[Na+].[Na+] [Chromotrope 6B]
Q: Descending sort on IC50 required. Could you list the labels in the order requested?
Ans: Q, P, S, R

====

tested on: MDA-MB-435 cells; experiment: Proliferation (CFDA-AM esterase assay) of cells grown on SISgel, plastic or Matrigel, 48 h drug exposure; assay type: cell-based; details: MDA-MB-435 cells on SISgel; read-out: EC50-S
test readout: EC50 (µM)
Answer with a number only, understood to be in µM.

>>> value_reported("O=S(=O)([O-])c1ccc2c(N=Nc3cccc4ccccc34)c(O)c(S(=O)(=O)[O-])cc2c1.[Na+].[Na+]")
35.9

Consider the record given below.
Q: What value of EC50 has been reported for the following compound? O=S(=O)([O-])c1cc(O)c2c(O)c(N=Nc3cccc4ccccc34)c(S(=O)(=O)[O-])cc2c1.[Na+].[Na+]
Ans: 8.7

====

test system: MDA-MB-231 (breast); experiment: Proliferation EC50 on SISgel vs monolayer; format: cell-based; settings: Homo sapiens; MDA-MB-231 on SISgel; n = 6-8; read-out: EC50 SISgel
test readout: pEC50
// pEC50: -log10(molar conc.)

Q: Item COc1cccc2c1C(=O)c1c(O)c3c(c(O)c1C2=O)C[C@@](O)(C(=O)CO)C[C@@H]3O[C@H]1C[C@H](N)[C@H](O)[C@H](C)O1 [Doxorubicin, reference compound] has what recorded pEC50?
Ans: 4.32

====

system: 4T1 parental cells; assay: EC50 on parental 4T1 cell line grown on plastic surface; format: cell-based, mouse; settings: plastic surface
test readout: EC50 (µM)
The reply should contain only the number, in µM.

>>> value_reported("O=S(=O)([O-])c1ccc2c(N=Nc3cccc4ccccc34)c(O)c(S(=O)(=O)[O-])cc2c1.[Na+].[Na+]")
14.4

Okay, next one:
Q: Name the reported EC50 value associated with the compound O=S(=O)([O-])c1cc(O)c2c(O)c(N=Nc3cccc4ccccc34)c(S(=O)(=O)[O-])cc2c1.[Na+].[Na+]
Ans: 19.7

====

tested on: cancer cells on SISgel or plastic; assay: Activity of leads and analogs on cancer cells grown on plastic vs SISgel (cell line not stated); assay type: cell-based; details: cells on plastic; read-out: IC50-p
test readout: IC50 (µM)

Reference set, count: 5
>>> value_reported("Cc1nc(N=Nc2ccc(S(=O)(=O)O)cc2S(=O)(=O)O)c(COP(=O)(O)O)c(C=O)c1O [PPADS]")
419
>>> value_reported("O=S(=O)([O-])c1cc(O)c2c(O)c(N=Nc3ccccc3)c(S(=O)(=O)[O-])cc2c1.[Na+].[Na+] [Chromotrope 2R]")
92
>>> value_reported("O=S(=O)(O)c1ccc(N=Nc2ccc3c(S(=O)(=O)O)cccc3c2O)c2ccccc12.[Na+] [Chromotrope F4B]")
90
>>> value_reported("CCN(Cc1cccc(S(=O)(=O)[O-])c1)c1ccc(C(=C2C=CC(=[N+](CC)Cc3cccc(S(=O)(=O)[O-])c3)C=C2)c2ccccc2)cc1.[Na+] [Acid Green 3]")
492
>>> value_reported("O=S(=O)([O-])c1cc(S(=O)(=O)[O-])c2c(N=Nc3ccc(S(=O)(=O)[O-])c4ccccc34)c(O)c(S(=O)(=O)[O-])cc2c1.[Na+].[Na+].[Na+].[Na+] [Ponceau 6R]")
124

I. O=S(=O)([O-])c1ccc(N=Nc2c(S(=O)(=O)[O-])cc3cc(S(=O)(=O)[O-])cc(O)c3c2O)cc1.[Na+].[Na+].[Na+] [Sulfanilic Acid Azochromotrop]
II. O=S(=O)([O-])c1ccccc1N=Nc1c(S(=O)(=O)[O-])cc2cc(S(=O)(=O)[O-])c(N=Nc3ccccc3S(=O)(=O)[O-])c(O)c2c1O.[Na+].[Na+].[Na+].[Na+] [Sulfanazo II]
Q: // compare measured IC50 between I and II ; output the lower one # reply format: chosen label
Ans: I
(I: 38 µM, II: 57 µM)

I. O=S(=O)([O-])c1ccc(N=Nc2c(O)ccc3cc(S(=O)(=O)[O-])ccc23)cc1.[Na+].[Na+] [Sunset Yellow FCF]
II. Cc1cc(C)c(N=Nc2c(O)c(S(=O)(=O)[O-])cc3cc(S(=O)(=O)[O-])ccc23)cc1C.[Na+].[Na+] [Ponceau 3R]
III. O=S(=O)([O-])c1ccc(N=Nc2ccc(O)c3ccccc23)cc1.[Na+] [Orange 1]
Q: // ranking: key=IC50, reverse=True Note for the reader: the ranking is given by listing the labels in the order requested.
Ans: III, II, I
